Measured values drawn from the kinase profiling compilation of Christmann-Franck et al. (2016) for this set.

tested on: SGK1 (human), O00141 [S422D]; experiment: radiometric filter-binding kinase assay; conditions: compound 0.1 µM
Sequence (O00141 whole entry S422D, looked up): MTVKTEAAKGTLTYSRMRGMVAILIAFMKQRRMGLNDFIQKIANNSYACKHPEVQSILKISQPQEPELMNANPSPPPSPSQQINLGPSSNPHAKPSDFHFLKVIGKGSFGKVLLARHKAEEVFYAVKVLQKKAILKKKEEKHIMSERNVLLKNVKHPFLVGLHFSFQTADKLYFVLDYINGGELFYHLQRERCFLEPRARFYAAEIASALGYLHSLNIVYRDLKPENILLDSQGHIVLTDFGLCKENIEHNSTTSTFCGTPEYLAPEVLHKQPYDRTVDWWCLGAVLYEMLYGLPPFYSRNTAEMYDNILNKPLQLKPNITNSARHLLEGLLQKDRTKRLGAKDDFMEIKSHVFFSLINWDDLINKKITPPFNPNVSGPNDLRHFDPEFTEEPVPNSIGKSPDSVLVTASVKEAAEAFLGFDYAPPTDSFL
Could you please report measured residual activity for the items listed next?
Answer format reminder: number followed by unit.

Provide residual activity for all items below, preserving their order.
1. NC(=O)Nc1ccc2c(c1)/C(=C/c1cc(-c3cccnc3)c[nH]1)C(=O)N2
2. C=CC(=O)N1CCC[C@@H](n2nc(-c3ccc(Oc4ccccc4)cc3)c3c(N)ncnc32)C1
3. CCn1c(-c2nonc2N)nc2cncc(CNC3CCNCC3)c21
4. Cc1ccc(Sc2cnc(Nc3cccc(Br)n3)s2)cc1C(=O)N1CCN(C(=O)CN)CC1

OUTPUT:
77%
95%
82%
89%
